System: HeLa (Cervical)
Assay: Combination drug treatment, Combination Index and IC50 (Example 6)
Type: cell-based
Conditions: Homo sapiens, monotherapy, 72 hours after exposure, read-out: IC50 Monotherapy
Source text: Chou: Theoretical Basis, Experimental Design, and Computerized Simulation of Synergism and Antagonism in Drug Combination Studies, Pharmacological Reviews.

[
  {
    "MOL_SMILES": "CS(=O)(=O)CCNCc1ccc(-c2ccc3ncnc(Nc4ccc(OCc5cccc(F)c5)c(Cl)c4)c3c2)o1",
    "EXPERIMENTAL_TARGET": "HeLa (Cervical)",
    "IC50 (µM)": 20.8
  }
]

* * *

system: Mahlavu (HCC); assay: Combination drug treatment, Combination Index and IC50 (Example 6); type: cell-based, Human; conditions: Homo sapiens, concentration of the named drug in Lapatinib + NSC348884 combination therapy, 72 hours, read-out: IC50 Combination Therapy
READOUT_TYPE: IC50 (µM)

[
  {
    "MOL_SMILES": "CS(=O)(=O)CCNCc1ccc(-c2ccc3ncnc(Nc4ccc(OCc5cccc(F)c5)c(Cl)c4)c3c2)o1",
    "READOUT_TYPE": "IC50",
    "QUANTITATIVE_READOUT": 14.4
  }
]

* * *

system: Mahlavu (HCC); test: Combination drug treatment, Combination Index and IC50 (Example 6); assay type: cell-based, Human; details: Homo sapiens, monotherapy, 72 hours after exposure, read-out: IC50 Monotherapy
READOUT_TYPE: IC50 (µM)

[
  {
    "MOL_SMILES": "CS(=O)(=O)CCNCc1ccc(-c2ccc3ncnc(Nc4ccc(OCc5cccc(F)c5)c(Cl)c4)c3c2)o1",
    "QUANTITATIVE_READOUT": 12.8
  }
]
